assay: collision cross section of modified peptide (TIMS, N2, iRT-aligned); higher = larger / more extended gas-phase ion; conditions: charge state: 2; modification: hydroxyisobutyryl
observed property: collision cross section (Å²)
Expressed in Å², but write only the number.

Please review the following examples before continuing.
| sequence string | observed property | unit text | recorded result |
| --- | --- | --- | --- |
| VETTVTSLKTK [_VETTVTSLK(hydroxyisobutyryl)TK_] | collision cross section | Å² | 389.83 |
| LQAAYAGDKADDIQK [_LQAAYAGDK(hydroxyisobutyryl)ADDIQK_] | collision cross section | Å² | 440.97 |
| LLFSNTAAQKLR [_LLFSNTAAQK(hydroxyisobutyryl)LR_] | collision cross section | Å² | 408.17 |
| VLTANSNPSSPSAAKR [_VLTANSNPSSPSAAK(hydroxyisobutyryl)R_] | collision cross section | Å² | 434.9 |
| DLSTVEALQNLKNLK [_DLSTVEALQNLK(hydroxyisobutyryl)NLK_] | collision cross section | Å² | 486.36 |

Then there is this sequence:
### Prompt Please give the documented collision cross section of VSPASSVDSNIPSSQGYKK [_VSPASSVDSNIPSSQGYK(hydroxyisobutyryl)K_]
### Response 468.85

###

experiment: collision cross section of modified peptide (TIMS, N2, iRT-aligned); higher = larger / more extended gas-phase ion; conditions: charge state: 3; modification: Crotonyl
Items are presented alongside their recorded collision cross section.
Expressed in Å², but write only the number.

Please review the following examples before continuing.
| sequence string | collision cross section / Å² |
| --- | --- |
| DAIHFYNKSLAEHR [_DAIHFYNK(Crotonyl)SLAEHR_] | 509.89 |
| VLDSGAPIKIPVGPETLGR [_VLDSGAPIK(Crotonyl)IPVGPETLGR_] | 511.83 |
| VGIDTPDIDIHGPEGKLK [_VGIDTPDIDIHGPEGK(Crotonyl)LK_] | 540.02 |
| TEVLSPNSKVESK [_TEVLSPNSK(Crotonyl)VESK_] | 452.38 |
| SLEEEGAAHSGKR [_SLEEEGAAHSGK(Crotonyl)R_] | 486.66 |

### Prompt Please give the documented collision cross section of LDHLAEKFR [_LDHLAEK(Crotonyl)FR_]
### Response 440.09

### Prompt Please give the documented collision cross section of VNIGQGSHPQKVK [_VNIGQGSHPQK(Crotonyl)VK_]
### Response 487.14

### Prompt Please give the documented collision cross section of DDSFLGKLGGTLAR [_DDSFLGK(Crotonyl)LGGTLAR_]
### Response 492.69

### Prompt Please give the documented collision cross section of LQEKVESAQSEQK [_LQEK(Crotonyl)VESAQSEQK_]
### Response 502.91

### Prompt Please give the documented collision cross section of INNFSADIKDSK [_INNFSADIK(Crotonyl)DSK_]
### Response 458.84

### Prompt Please give the documented collision cross section of AGQKLIDVNHYAK [_AGQK(Crotonyl)LIDVNHYAK_]
### Response 485.3

###

test: collision cross section of modified peptide (TIMS, N2, iRT-aligned); higher = larger / more extended gas-phase ion; details: charge state: 2; modification: HexNAc (ST)
Use 400 Å² as the dividing line for collision cross section, with the line itself on the condition met side and lower values as condition not met.

Solved entries (count: 5):
| sequence string | class |
| --- | --- |
| IEDEQALGSQLQK [_IEDEQALGS(HexNAc (ST))QLQK_] | condition met |
| VTGGIFSVTK [_VTGGIFS(HexNAc (ST))VTK_] | condition not met |
| SVGGSGGGSFGDNLVTR [_SVGGSGGGSFGDNLVT(HexNAc (ST))R_] | condition met |
| VLSIGDGIAR [_VLS(HexNAc (ST))IGDGIAR_] | condition not met |
| APIISGVTK [_APIIS(HexNAc (ST))GVTK_] | condition not met |

### Prompt hey, is collision cross section for this one >= 400 Å²? SFSASGAQIVSR [_SFSASGAQIVS(HexNAc (ST))R_]
### Response condition not met

### Prompt hey, is collision cross section for this one >= 400 Å²? SISQSISGQK [_S(HexNAc (ST))ISQSISGQK_]
### Response condition not met
